- Experiment notes: Solubility in aqueous media 0.1 N chloride, pH 6.5
- Type: physicochemical
- Assay context: read-out: S
Can you tell me solubility for the items I'm about to list?
Answer with the figure and its unit, nothing else.

Compound | solubility
Cl.N[C@H]1CCN(c2nc3c(cc2F)c(=O)c(C(=O)O)cn3-c2ccc(F)cc2F)C1 | 4.5 µg/mL

Now for the compound whose solubility we want.
Given item Cl.NC1CCN(c2nc3c(cc2F)c(=O)c(C(=O)O)cn3-c2ccc(F)cc2F)C1 (configuration not stated) , the value recorded as its solubility is 1.2 µg/mL

====

- Experiment notes: Solubility in aqueous media urine, pH 5.1
- Type: physicochemical
- Assay context: read-out: S
Can you tell me solubility for the items I'm about to list?
Answers are plain numbers, in µg/mL.

Compound | solubility, µg/mL
Cl.N[C@H]1CCN(c2nc3c(cc2F)c(=O)c(C(=O)O)cn3-c2ccc(F)cc2F)C1 | 32.4

Given item Cl.NC1CCN(c2nc3c(cc2F)c(=O)c(C(=O)O)cn3-c2ccc(F)cc2F)C1 (configuration not stated) , the value recorded as its solubility is 23.5
